This listing pairs molecules with measured logD.
# test_protocol: Octanol-water partition coefficient, log D of the compound by shake-flask method
# Type: physicochemical
Write no unit; give the number alone.

molecular_string: Cc1onc(C(=O)N2[C@@H]3CC[C@H]2C[C@@H](Nc2cc(=O)n(C)c4cc(F)c(F)cc24)C3)c1C
logD: 2.8
--
molecular_string: Cn1ncc(C(=O)N2CCC(Nc3cc(=O)[nH]c4cc(F)c(F)cc34)CC2)c1Cl
logD: 2.2
--
molecular_string: Cn1ncc(C(=O)N2[C@@H]3CC[C@H]2C[C@@H](Nc2n[nH]c4ccc(F)cc24)C3)c1Cl
logD: 1.9

Please find the next molecule below.
Ask | Please indicate logD recorded for `Cn1ncc(C(=O)N2CCC(Nc3cc(=O)n(C)c4ccccc34)CC2)c1Cl`
Reply | 2

---

Catalogue of Papp B→A readings, one per entry.
# test_protocol: Permeability of the compound from basolateral to apical side in human Caco2 cells
# Type: ADME, cell-based
# experimental_setup: Caco-2, read-out: permeability
Just the number in ×10⁻⁶ cm/s, nothing appended.

Reference set (2 entries):
molecular_string: Cn1ncc(C(=O)N2CCC(Nc3cc(=O)[nH]c4ccccc34)CC2)c1Cl
unit_name: ×10⁻⁶ cm/s
Papp B→A: 14

molecular_string: Cn1ncc(C(=O)N2CCC(Nc3cc(=O)[nH]c4ccc(F)cc34)CC2)c1Cl
unit_name: ×10⁻⁶ cm/s
Papp B→A: 13

Ask | Item `Cc1onc(C(=O)N2[C@@H]3CC[C@H]2C[C@@H](Nc2cc(=O)n(C)c4nccnc24)C3)c1C` : provide Papp B→A
Reply | 21

Ask | Give recorded Papp B→A. `Cn1ncc(C(=O)N2CCC(Nc3cc(=O)n(C)c4ccccc34)CC2)c1Cl`
Reply | 23

Ask | Name the recorded Papp B→A of the item `Cn1ncc(C(=O)N2CCC(Nc3cc(=O)[nH]c4cc(F)c(F)cc34)CC2)c1Cl` in your answer.
Reply | 11

Ask | Give the value of Papp B→A reported for the following: `Cc1onc(C(=O)N2[C@@H]3CC[C@H]2C[C@@H](Nc2cc(=O)n(C)c4cc(F)c(F)cc24)C3)c1C`
Reply | 13

Ask | For the compound `Cn1ncc(C(=O)N2[C@@H]3CC[C@H]2C[C@@H](Nc2n[nH]c4ccc(F)cc24)C3)c1Cl` , give its reported Papp B→A.
Reply | 31

Ask | Specify reported Papp B→A for the compound shown: `Cn1ncc(C(=O)N2[C@@H]3CC[C@H]2C[C@@H](Nc2cc(=O)n(C)c4ncccc24)C3)c1Cl`
Reply | 36

Ask | Look up Papp B→A of `Cc1onc(C(=O)N2CCC(Nc3cc(=O)n(C)c4cc(F)c(F)cc34)CC2)c1C` and report it.
Reply | 21

---

Reported Vd is given for each of the following molecules.
# test_protocol: Volume of distribution at steady state in Wistar rat at 2 mg/kg, iv
# Type: ADME, organism-based
# Set-up: dose 2 mg/kg, route intravenous
# experimental_setup: in vivo, read-out: Vdss
Output spec: scalar in L/kg, unitless text.

molecular_string: Cn1ncc(C(=O)N2CCC(Nc3cc(=O)[nH]c4cc(F)c(F)cc34)CC2)c1Cl
unit_name: L/kg
Vd: 0.9

Okay, next one:
Ask | Write down Vd measured for item `Cn1ncc(C(=O)N2CCC(Nc3cc(=O)n(C)c4ccccc34)CC2)c1Cl`
Reply | 1.2

Just for reference, ChEMBL document CHEMBL3286182 is where these values come from.
